Recorded measurements of binding signal, one per entry
# measured-target: GST-NAP(1-166) (Arabidopsis thaliana, UniProt O49255 1-166)
# Sequence: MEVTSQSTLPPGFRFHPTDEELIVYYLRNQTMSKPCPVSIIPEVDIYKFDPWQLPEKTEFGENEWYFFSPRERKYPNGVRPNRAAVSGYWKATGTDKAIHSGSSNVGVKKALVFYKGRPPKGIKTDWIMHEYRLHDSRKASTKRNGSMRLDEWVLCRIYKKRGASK
# measurement-notes: universal protein binding microarray (PBM); transcription factors of Arabidopsis thaliana; high values mean tight binding
# measurement-setup: protein: recombinant; tags: GST; chain copies: 2; dsDNA, one strand shown
Answer by giving the amount and then stating its unit.

- sequence-text: "GTCAACAC"
  value-observed: "0.163 E-score"
- sequence-text: "AGGGAAAC"
  value-observed: "0.14 E-score"

**Q:** Any idea what its binding signal is? The sequence is ACGCAAAC
**A:** 0.368 E-score

**Q:** Requested field: binding signal. Item: ACGCAAGC
**A:** 0.294 E-score

**Q:** I am curious: what binding signal value has been reported for ACGTTACA ?
**A:** 0.23 E-score

**Q:** I am curious: what binding signal value has been reported for AAATTGAC ?
**A:** 0.136 E-score

**Q:** // lookup binding signal for CACGCCAC
**A:** 0.292 E-score

**Q:** Can you share its binding signal? I mean this sequence: ATACGCAA
**A:** 0.459 E-score

**Q:** I have this sequence here, ACACGACT , and I need its recorded binding signal.
**A:** 0.179 E-score

**Q:** Look up binding signal for this sequence: ACGTACGC
**A:** 0.274 E-score

**Q:** Endpoint output: binding signal of GACGTCAA . Value?
**A:** 0.122 E-score
